target of assay: furin, P09958;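 further: purified furin at 1:10 enzyme:substrate in 50 mM HEPES pH 7.5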
Sequence (P09958 whole entry): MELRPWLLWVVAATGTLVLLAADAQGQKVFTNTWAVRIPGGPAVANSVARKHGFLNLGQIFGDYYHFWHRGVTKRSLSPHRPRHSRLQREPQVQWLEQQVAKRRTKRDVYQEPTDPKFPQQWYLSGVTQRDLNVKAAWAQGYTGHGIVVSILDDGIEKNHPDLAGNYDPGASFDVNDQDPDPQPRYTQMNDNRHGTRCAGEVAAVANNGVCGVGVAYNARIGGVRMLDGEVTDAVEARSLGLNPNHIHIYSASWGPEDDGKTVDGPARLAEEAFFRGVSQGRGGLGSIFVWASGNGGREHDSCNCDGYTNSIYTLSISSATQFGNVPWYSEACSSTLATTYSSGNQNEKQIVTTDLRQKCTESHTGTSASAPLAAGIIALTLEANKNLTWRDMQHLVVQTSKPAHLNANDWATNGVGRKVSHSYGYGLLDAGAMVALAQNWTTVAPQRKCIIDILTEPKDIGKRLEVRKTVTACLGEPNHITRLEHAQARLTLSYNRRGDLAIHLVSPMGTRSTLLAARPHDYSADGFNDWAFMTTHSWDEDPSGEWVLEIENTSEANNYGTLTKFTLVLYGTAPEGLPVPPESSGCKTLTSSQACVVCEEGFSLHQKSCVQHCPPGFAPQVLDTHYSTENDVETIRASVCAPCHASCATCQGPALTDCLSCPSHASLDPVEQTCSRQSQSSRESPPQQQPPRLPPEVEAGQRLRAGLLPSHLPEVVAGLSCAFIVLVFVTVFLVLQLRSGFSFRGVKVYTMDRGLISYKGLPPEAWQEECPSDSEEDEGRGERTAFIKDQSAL
experimental details: furin cleavage Z-score vs untreated control; higher = more cleavage, active = 3.5 or more, inactive = 1 or less, 8 variable residues between constant flanks
condition info: 30 min
The list shows a part of the results. The hit rate among all sequences tested is not known here.
Possible outcomes: T (active), F (inactive)

# polymer sequence, group
data = [
    ("CAVFQRKRRGAGNASASA [FS-1578]", "T"),
    ("CAEPVTSTWVAGNASASA [HC2179]", "F"),
    ("CASHPCSAHLAGNASASA [HC2495]", "F"),
    ("CAHLVPVLRGAGNASASA [FS-595]", "F"),
    ("CARRRRSFRRAGNASASA [FS-376]", "T"),
    ("CAMEECSQSLAGNASASA [HC1757]", "F"),
    ("CARRGRTGRGAGNASASA [HC904]", "F"),
    ("CAVPRRPARAAGNASASA [FS-150]", "T"),
    ("CARRRRCLNGAGNASASA [FS-1783]", "T"),
    ("CALIARDQLEAGNASASA [HC1587]", "F"),
    ("CAAACRAAGLAGNASASA [HC1521]", "F"),
    ("CARGKREAGLAGNASASA [FS-1950]", "T"),
    ("CAVVCCSMYYAGNASASA [HC2069]", "F"),
    ("CASTPCSAHHAGNASASA [HC2575]", "F"),
    ("CAPVENLETTAGNASASA [HC759]", "F"),
    ("CAGPLRSKRRAGNASASA [FS-128]", "F"),
    ("CALPRRPARSAGNASASA [FS-1231]", "T"),
    ("CARPLRSSERAGNASASA [FS-2056]", "F"),
]
